Test system: SRC
Conditions: concentration: 1 μM,replicates: in singlicate; n = 1;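 also: KINOMEscan kinase panel screen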
The label is label 1 for %Inh below 20% and label 0 for %Inh equal to or exceeding 20%.

molecule	assigned.class
CCNCC(Cc1ccccc1)NC(=O)c1cc(Br)c(-c2ccnc3[nH]ccc23)s1.Cl.Cl (stereo not shown)	label 1

Regarding `Cc1ccc(Nc2ccnc(Nc3ccc4c(c3)CS(=O)(=O)C4)n2)cc1O.Cl` , kindly confirm whether its %Inh is beneath 20%.
label 0

Regarding `CN(c1ccccc1CNc1nc(Nc2ccc3c(c2)CC(=O)N3)ncc1C(F)(F)F)S(C)(=O)=O` , kindly confirm whether its %Inh is beneath 20%.
label 0

Does this molecule meet the criterion %Inh < 20%? COC(=O)c1cccc(NC(=O)NC2CCN(c3ccnc(Nc4cc(OC)c(OC)c(OC)c4)n3)C2)c1 (stereo not shown)
label 1

Hello, I'm reviewing records and need to know if %Inh of `Cc1cccc(-c2nc(Nc3ccncc3)c3sccc3n2)n1` is below 20%. Could you check?
label 1

For `CC(=O)Nc1ccc(-c2cc3ncnc(SCC(=O)O)c3s2)cc1` , is the recorded %Inh below the cut-off of 20%?
label 1

Is 20% strictly greater than the molecule's reported %Inh? molecule: Cc1nnc(-c2ccc3occ(-c4ccc(S(C)=O)cc4)c3n2)o1 (stereo not shown)
label 1

---

Tested on: TLK2
Settings: concentration: 1 μM,replicates: in singlicate; n = 1
metric.name: %Inh (%)
Answers are plain numbers, in %.

compound	unit.of.measurement	%Inh
CS(=O)(=O)c1cccc(CNc2nc(Nc3ccc4c(c3)[C@@H]3C[C@@H]4CNC3=O)ncc2C(F)(F)F)c1	%	0
Cn1ccc2ncnc(Oc3ccc(NC(=O)Nc4ccnc(C(F)(F)F)c4)c(Cl)c3)c21	%	0

# batch size: 2; output %Inh per entry
1. Cc1n[nH]c2cc(Nc3ccnc(Nc4cccc(CN5CCOCC5)c4)n3)ccc12
2. Cc1nnc(-c2ccc3occ(-c4ccc(S(C)=O)cc4)c3n2)o1 (stereo not shown)

2
0

Your task in this section: give %Inh for each listed record.
1. COc1cccc(C2=C(Nc3cccc(Cl)c3)C(=O)NC2=O)c1
2. Cn1ccc2ncnc(Oc3ccc(NC(=O)Nc4cncc(C(F)(F)F)c4)c(Cl)c3)c21
3. COC(=O)Nc1nc2cc(Oc3ccc(NC(=O)Nc4cc(C(F)(F)F)ccc4Cl)cc3)ccc2[nH]1.Cl

1: 29; 2: 0; 3: 0

---

Test system: IKK-alpha
Construct: gene CHUK
Conditions: concentration: 1 μM,replicates: in singlicate; n = 1
metric.name: %Inh
Please answer using the number first and the unit second.

These recorded examples may help you get a feel for the data.
compound	result
COC(=O)c1cccc(NC(=O)NC2CCN(c3ccnc(NCc4ccc(F)cc4)n3)CC2)c1	26%
COc1cc2nccc(Nc3ccc(Oc4ccccc4)cc3)c2cc1OC.Cl	0%
C[C@@H]1CNc2c(sc3ccc4nc(-c5ccc(O)cc5)ccc4c23)C(=O)N1	27%
Cc1ccc2c(-c3ccnc(Nc4ccc(C(F)(F)F)cc4)n3)cnn2n1	38%
N#Cc1cccc(C(=O)NC2CCN(c3ccnc(Nc4ccc(F)cc4)n3)C2)c1 (stereo not shown)	16%

Go through the list and state %Inh for each entry.
1. COC(=O)c1cccc(NC(=O)NC2CCN(c3ccnc(Nc4cc(OC)c(OC)c(OC)c4)n3)C2)c1 (stereo not shown)
2. Cn1ccc2ncnc(Oc3ccc(NC(=O)Nc4cnn(C(C)(C)C)c4)c(Cl)c3)c21
3. Cn1ccc2ncnc(Oc3ccc(NC(=O)Nc4cncc(C(F)(F)F)c4)c(Cl)c3)c21
4. C[C@@H](Oc1cc(-n2cnc3cc(-c4ccncc4)ccc32)sc1C(N)=O)c1ccccc1Cl
5. c1ccc(Oc2ccc(Nc3ccnc4ccc(-c5ccccn5)cc34)cc2)cc1

1. 0%
2. 29%
3. 0%
4. 37%
5. 9%

Dear colleague, could you please provide %Inh for the compounds listed below?
1. Cc1n[nH]c2cc(Nc3ccnc(Nc4cccc(CN5CCOCC5)c4)n3)ccc12
2. COc1ccc(Nc2nccc(N3CCC(NC(=O)c4cccc(C#N)c4)C3)n2)cc1 (stereo not shown)
3. O=c1[nH]cc(-c2ccc(O)cc2)c2sc(-c3ccncc3)cc12

1: 0%; 2: 0%; 3: 0%

---

Assign %Inh to each entry below.
Test system: DCAMKL3
Construct: gene DCLK3
Conditions: concentration: 1 μM,replicates: in singlicate; n = 1
Answers are plain numbers, in %.

compound	numeric.result
CN1CCN(CCCNc2nccc(-c3c(-c4ccc(F)cc4)nn4cc(C(N)=O)ccc34)n2)CC1 [GW622475]	7
C[C@@H]1CCN(C(=O)N2CCCC2)C[C@@H]1N(C)c1ncnc2[nH]ccc12	99.8
Cc1nnc(-c2ccc3occ(-c4ccc(S(C)=O)cc4)c3n2)o1 (centres unmarked)	0
O=C(NCC1CC1)c1ccc(-c2cc(C(=O)NC3CC3)ccc2F)cc1 [GW810445]	0
Cc1ccc(CC(=O)N2CCc3cc(-c4cn(C)c5ncnc(N)c45)ccc32)cc1 [GSK2634758]	0

Here are 3 compounds. What values of %Inh were reported for them?
1. CN(c1cccc(CNc2nc(Nc3ccc4c(c3)CC(=O)N4)ncc2C(F)(F)F)c1)S(C)(=O)=O
2. Cc1ccc2c(-c3ccnc(Nc4ccc(C(F)(F)F)cc4)n3)cnn2n1 [GW819776]
3. C[C@@H](Oc1cc(-n2cnc3ccc(-c4ccncc4)cc32)sc1C(N)=O)c1ccccc1Cl [GSK483724]

[86, 0, 0]

---

Test system: PRP4
Settings: concentration: 1 μM,replicates: in singlicate; n = 1
metric.name: %Inh (%)
Give bare numbers, in %.

compound	%Inh / %
CC(=O)Nc1nc2cnc(Nc3cc(NC(=O)c4cccc(CC(C)(C)C#N)c4)ccc3C)nc2s1	6
O=C(Nc1ccccc1)c1cccc(Oc2ccc3nccn3n2)c1	0
O=C(Nc1cccc(C(F)(F)F)c1)c1cccc(Oc2ccc3nccn3n2)c1	8
COc1cccc(C2=C(Nc3cccc(Cl)c3)C(=O)NC2=O)c1 [SB-341556]	25
O=C1NCCc2[nH]c(-c3ccncc3)cc21	43

For the 4 compounds below, give their %Inh values.
1. CN1CCN(CCNc2nc3cc(Oc4ccc(NC(=O)Nc5cc(C(F)(F)F)ccc5F)cc4)ccc3[nH]2)CC1.Cl.Cl [GW768504]
2. Cc1ccc(CC(=O)N2CCc3cc(-c4cn(C)c5ncnc(N)c45)ccc32)cc1 [GSK2634758]
3. Cc1cccc(-c2nc(Nc3ccncc3)c3sccc3n2)n1 [GW869641]
4. Cn1ccc2ncnc(Oc3ccc(NC(=O)Nc4cc(C(C)(C)C)on4)c(Cl)c3)c21

0
20
0
23

---

System: MAP3K3
Conditions: concentration: 1 μM,replicates: in singlicate; n = 1
Would you mind telling me the reported %Inh of each entry?
Answers are plain numbers, in %.

compound	unit.of.measurement	numeric.result
NC(=O)Nc1sc(-c2ccc(F)cc2)cc1C(N)=O	%	72

I have 3 compounds here; please give me %Inh for each one.
1. COc1ccc(Nc2nccc(N3CCC(NC(=O)c4cccc(C#N)c4)C3)n2)cc1 (stereo not drawn)
2. Cn1cc(-c2cccc3c(N)c(C(N)=O)nnc23)cn1
3. C[C@@H](Oc1cc(-n2cnc3ccc(-c4ccncc4)cc32)sc1C(N)=O)c1ccccc1Cl

1. 0
2. 30
3. 0

---

Test system: ERBB2
Details: concentration: 1 μM,replicates: in singlicate; n = 1
metric.name: %Inh (%)
Answers are plain numbers, in %.

Take a look at these entries with their results.
structure.notation	%Inh, %
OCCn1cc(-c2cnc3nnn(Cc4ccc5ncccc5c4)c3n2)cn1	5
C[C@@H](Oc1cc(-n2cnc3cc(-c4ccncc4)ccc32)sc1C(N)=O)c1ccccc1Cl	0
COC(=O)Nc1nc2cc(Oc3ccc(NC(=O)Nc4cc(C(F)(F)F)ccc4Cl)cc3)ccc2[nH]1.Cl	45
O=C(Nc1cccc(C(F)(F)F)c1)c1cccc(Oc2ccc3nccn3n2)c1	0
CCn1c(-c2nonc2N)nc2cncc(Br)c21	60
COc1cccc(C2=C(Nc3cccc(Cl)c3)C(=O)NC2=O)c1	0

Give me %Inh for each of these molecules, listed below.
1. CCOC(=O)N1CCC(n2cnc(-c3ccc(F)cc3)c2-c2ccnc(N)n2)CC1
2. Nc1nccc(-c2ccc3c(N)n[nH]c3c2)n1

[5, 6]

Fetch value of %Inh on ERBB2 for `COc1cccc(OC)c1C(=O)Nc1cccc(-c2nn3ccccc3c2-c2ccnc(Nc3cccc(F)c3)n2)c1` .
61

---

System: TNNI3K
Settings: concentration: 1 μM,replicates: in singlicate; n = 1
metric.name: %Inh (%)
Numbers only, in %.

Examples with answers:
structure.notation	%Inh / %
C[C@@H]1CNc2c(sc3ccc4nc(-c5ccc(O)cc5)ccc4c23)C(=O)N1	1
NC(=O)Nc1sc(-c2ccc(F)cc2)cc1C(N)=O	24
CC(C)c1nc(-c2cccc(NS(=O)(=O)c3ccccc3)c2)c(-c2ccnc(Nc3ccc4c(c3)CN(C)CC4)n2)s1	85
O=C(Nc1ccccc1)c1cccc(Oc2ccc3nccn3n2)c1	2

I'm hoping you can list %Inh for every compound here, please.
1. Cn1ccc2ncnc(Oc3ccc(NC(=O)Nc4cccc(C(F)(F)F)c4)c(F)c3)c21
2. COc1cc2c(Nc3ccc(NC(=O)c4ccccc4)cc3)ncnc2cc1OCCCN1CCOCC1
3. O=C(NOCC1CC1)c1cc(Br)c(F)c(F)c1Nc1ccc(I)cc1Cl
4. CN(c1ccc2c(c1)nc(NCc1ccc(F)cc1)n2C)c1ccnc(Nc2ccc(CS(C)(=O)=O)cc2)n1.Cl

1. 82
2. 9
3. 0
4. 11
